biological target: T1, GST-KIAA0316 PDZ domain fusion protein (Homo sapiens (Human), UniProt Q14CM0 72-159); assay: A/G assays
T1 construct: also called K316; not shown: glutathione S-transferase (GST) encoded by pGEX-3X
T1 sequence (Q14CM0 other isoform, or with tags, fused parts or gaps): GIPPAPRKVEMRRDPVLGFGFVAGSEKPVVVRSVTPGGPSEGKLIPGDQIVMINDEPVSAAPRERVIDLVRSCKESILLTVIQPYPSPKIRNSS
Ends that are not written are not given here. * marks the point of attachment. Biotin = O=C1N[C@H]2[C@H](CS[C@H]2CCCCC(=O)*)N1
observed-property: binding result

Biotin-TIYENLAPVTTFGKTIA [CD148 peptide AA55L (ending KTIA)] ... no binding
Biotin-AWDDSARAAGGQGLHVTAL [LPAP C-terminal peptide AA30L] ... no binding
Biotin-ERLKLEPHEGLLLRFPYAA [CD98 (2F4) C-terminal peptide AA15L] ... no binding
Biotin-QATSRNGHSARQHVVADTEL [CD34 C-terminal peptide AA7L] ... no binding
